Cited source for all entries: patent US9809540B2

Method notes: Solubility in simulated gastric/intestinal fluids and pH media
Format: physicochemical
Run parameters: SGF (simulated gastric fluid), pH 1.6, simulated gastric fluid, thermodynamic from solid, SGF pH1.6, 4 hr
Assay endpoint: solubility at 4 h (mg/mL)

molecule="Cc1c(F)cccc1NC(=O)Nc1ccc(Cl)c(S(=O)(=O)[C@H]2CCCNC2)c1O [Micronised free base, reference compound]" assay_endpoint="solubility at 4 h" readout_unit=mg/mL numeric_value=0.808

====

Method notes: Solubility in simulated gastric/intestinal fluids and pH media
Type: physicochemical
Run parameters: pH 8, aqueous buffer, thermodynamic from solid, pH 8.0, 0.5 hr
Structures can show the parent of a compound that is named as a salt.
Assay endpoint: solubility at 0.5 h

molecule="Cc1c(F)cccc1NC(=O)Nc1ccc(Cl)c(S(=O)(=O)[C@H]2CCCNC2)c1O [HBr Salt]" result="52 µg/mL"

====

Method notes: Solubility in simulated gastric/intestinal fluids and pH media
Type: physicochemical
Run parameters: pH 8, aqueous buffer, thermodynamic from solid, pH 8.0, 4 hr
Counter-ions that a name gives are not always drawn.
Assay endpoint: solubility at 4 h

compound="Cc1c(F)cccc1NC(=O)Nc1ccc(Cl)c(S(=O)(=O)[C@H]2CCCNC2)c1O [HBr Salt]" assay_endpoint="solubility at 4 h" result="13 µg/mL"

====

Method notes: Solubility in simulated gastric/intestinal fluids and pH media
Format: physicochemical
Run parameters: fed-state simulated intestinal fluid (Phares FeSSIF), pH 6.5, fessif, thermodynamic from solid, Batch 3, Phares FeSSIF pH .5, 4 hr
Where a name gives a salt, the structure may show the parent alone.
Assay endpoint: solubility at 4 hr (µg/mL)

compound="Cc1c(F)cccc1NC(=O)Nc1ccc(Cl)c(S(=O)(=O)[C@H]2CCCNC2)c1O [HBr Salt]" readout_unit=µg/mL numeric_value=841
